Assay Text: Concentration in serum after oral administration to rats
Condition: rat, 20 mg/kg
Metric: concentration at 3 h (ng/mL)
Numbers only, in ng/mL.

Below, each entry is followed by its recorded concentration at 3 h result.
CCN(C)c1ccc2nc3c4c5c6c(C)c(O)c4c(=O)c(c-3oc2c1)NC(=O)C(C)=CC=CC(C)C(O)C(C)C(O)C(C)C(OC(C)=O)C(C)C(OC)C=COC(C)(O6)C5=O (stereo not drawn) | 5400
COC1C=COC2(C)Oc3c(C)c(O)c4c(=O)c(c5oc6cc(N7CCCC7)ccc6nc-5c4c3C2=O)NC(=O)C(C)=CC=CC(C)C(O)C(C)C(O)C(C)C(O)C1C (stereo not drawn) | 3500

Please find the next molecule below.
QUERY: For the molecule COC1C=COC2(C)Oc3c(C)c(O)c4c(=O)c(c5oc6cc(N7CCCC7)ccc6nc-5c4c3C2=O)NC(=O)C(C)=CC=CC(C)C(O)C(C)C(O)C(C)C(OC(C)=O)C1C (stereo not drawn) , what concentration at 3 h is on record?
RESULT: 4900
